Target: UniProtKB O94966
Sequence (O94966 whole entry): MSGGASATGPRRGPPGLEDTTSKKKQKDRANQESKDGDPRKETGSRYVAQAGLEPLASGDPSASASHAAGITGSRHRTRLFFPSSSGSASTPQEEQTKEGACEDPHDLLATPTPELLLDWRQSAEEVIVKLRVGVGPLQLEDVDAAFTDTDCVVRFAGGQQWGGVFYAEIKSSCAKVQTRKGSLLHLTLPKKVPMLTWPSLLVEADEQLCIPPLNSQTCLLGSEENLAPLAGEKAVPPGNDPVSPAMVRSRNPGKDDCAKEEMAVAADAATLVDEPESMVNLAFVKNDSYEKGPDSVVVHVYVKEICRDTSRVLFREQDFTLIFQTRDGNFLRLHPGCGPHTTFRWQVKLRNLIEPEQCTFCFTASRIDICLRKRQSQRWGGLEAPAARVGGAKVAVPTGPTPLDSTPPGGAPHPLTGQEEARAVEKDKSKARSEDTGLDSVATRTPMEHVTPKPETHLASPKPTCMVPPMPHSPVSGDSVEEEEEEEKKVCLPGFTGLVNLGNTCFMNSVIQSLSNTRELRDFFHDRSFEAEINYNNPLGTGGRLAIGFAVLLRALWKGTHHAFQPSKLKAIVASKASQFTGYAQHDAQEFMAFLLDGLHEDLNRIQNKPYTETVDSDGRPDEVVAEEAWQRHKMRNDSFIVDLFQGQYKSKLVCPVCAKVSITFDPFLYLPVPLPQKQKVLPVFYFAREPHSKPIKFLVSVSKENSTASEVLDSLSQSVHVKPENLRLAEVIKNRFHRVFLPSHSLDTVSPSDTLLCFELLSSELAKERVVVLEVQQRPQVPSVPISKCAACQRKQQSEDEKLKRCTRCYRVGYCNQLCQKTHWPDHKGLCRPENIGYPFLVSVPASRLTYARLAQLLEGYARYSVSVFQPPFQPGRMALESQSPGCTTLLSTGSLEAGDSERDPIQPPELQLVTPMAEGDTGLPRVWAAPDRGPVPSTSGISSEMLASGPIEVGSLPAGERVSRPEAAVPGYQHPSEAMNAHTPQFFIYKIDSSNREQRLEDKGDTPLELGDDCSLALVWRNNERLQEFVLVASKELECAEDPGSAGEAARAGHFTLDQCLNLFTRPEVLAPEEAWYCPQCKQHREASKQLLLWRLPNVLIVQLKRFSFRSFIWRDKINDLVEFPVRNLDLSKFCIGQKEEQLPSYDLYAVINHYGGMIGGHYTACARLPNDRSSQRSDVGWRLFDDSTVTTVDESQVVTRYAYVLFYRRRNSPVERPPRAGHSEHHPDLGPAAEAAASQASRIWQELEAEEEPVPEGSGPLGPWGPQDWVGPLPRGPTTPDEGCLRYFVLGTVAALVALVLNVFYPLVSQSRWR
Assay: Inhibition of USP19 (unknown origin) in breast cancer cell measured by cell target engagement assay
Design: species or system Breast cancer cell line
ENDPOINT_NAME: EC50 (nM)
Please respond with the number in nM and leave the unit unwritten.

Q. Look up EC50 with UniProtKB O94966 for this compound: C[C@H](CC1CCCCC1)C(=O)N1CC[C@@](O)(Cn2cc(C(=O)N3CCNCC3)c(-c3ccccc3)cc2=O)C2(CCCC2)C1
A. 9.9
